Just for reference, patent US8987239B2 is where these values come from.

# pIC50 measurements, system: androgen receptor (Homo sapiens (Human))
# Sequence (P10275 whole entry, species assumed): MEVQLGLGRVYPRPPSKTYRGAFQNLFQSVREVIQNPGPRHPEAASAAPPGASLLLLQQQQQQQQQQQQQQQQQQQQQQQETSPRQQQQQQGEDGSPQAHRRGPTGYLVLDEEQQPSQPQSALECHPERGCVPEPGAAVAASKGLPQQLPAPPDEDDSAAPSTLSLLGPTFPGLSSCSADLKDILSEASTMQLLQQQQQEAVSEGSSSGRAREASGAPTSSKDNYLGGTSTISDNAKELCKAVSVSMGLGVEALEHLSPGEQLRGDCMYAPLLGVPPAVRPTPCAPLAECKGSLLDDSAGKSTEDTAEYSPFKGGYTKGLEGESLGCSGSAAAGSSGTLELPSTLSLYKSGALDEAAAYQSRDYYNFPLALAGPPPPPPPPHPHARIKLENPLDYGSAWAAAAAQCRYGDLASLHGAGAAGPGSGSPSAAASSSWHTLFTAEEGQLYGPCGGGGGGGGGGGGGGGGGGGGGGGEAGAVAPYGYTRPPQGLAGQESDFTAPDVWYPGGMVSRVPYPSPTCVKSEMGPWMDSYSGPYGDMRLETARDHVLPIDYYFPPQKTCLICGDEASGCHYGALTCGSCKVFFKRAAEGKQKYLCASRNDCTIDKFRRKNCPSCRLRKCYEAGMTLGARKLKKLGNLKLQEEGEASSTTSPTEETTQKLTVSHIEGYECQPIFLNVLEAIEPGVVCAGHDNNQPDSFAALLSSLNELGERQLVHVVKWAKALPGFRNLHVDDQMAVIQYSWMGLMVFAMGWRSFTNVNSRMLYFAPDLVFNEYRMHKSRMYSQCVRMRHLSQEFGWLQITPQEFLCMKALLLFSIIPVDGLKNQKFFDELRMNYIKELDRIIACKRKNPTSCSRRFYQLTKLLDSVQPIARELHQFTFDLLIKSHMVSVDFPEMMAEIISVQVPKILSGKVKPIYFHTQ
One number for each entry, as −log10 of the molar value.

{"molecule": "C[C@]12CCC3C4CCC(=O)C=C4CC(C4CC4)C3C1C1CC1[C@@]21CCC(=O)O1 (stereo partly shown) [Example 6]", "reportedValue": 7.11}
{"molecule": "C[C@]12CCC3C4CCC(=O)C=C4[C@H](CO)CC3C1C1CC1[C@@]21CCC(=O)O1 (stereo partly shown) [Example 7]", "reportedValue": 5.00}
{"molecule": "C=CC1CC2=CC(=O)CCC2C2CC[C@@]3(C)C(C4CC4[C@@]34CCC(=O)O4)C12 (stereo partly shown) [Example 5]", "reportedValue": 7.26}

# input API: value(readout=pIC50, system=androgen receptor (Homo sapiens (Human))) for record C[C@]12CCC3C4CCC(=O)C=C4C4(CC4)CC3C1C1CC1[C@@]21CCC(=O)O1 (stereo partly shown) [Example 8]
# output 7.59
